test: physchem; conditions: pH 2.7
Structures can show the parent of a compound that is named as a salt.
Reported metric: log p
// return just the number, without any unit appended

Example entries begin here.
* CCCn1ccc(-c2cc(C)cs2)n1 | 3.07
* Cc1csc(-c2nn(C(C)C)cc2I)c1 | 4.26
* CC(C)n1cc(-c2ccnc(NCc3ccccc3)n2)c(-c2ccc(Cl)s2)n1 | 3.81

Specify reported log p for the compound shown: CC(=O)c1ccc(-c2n[nH]cc2-c2ccncc2)s1 [hydrochloride]
0.62

Determine its reported log p: `CN(C)C=C(C(=O)c1ccc(Cl)s1)c1ccnc(Cl)c1`
2.58

Identify log p associated with the compound `Cc1c(Br)c(-c2ccc(Cl)s2)nn1C(C)C`
5.35

# return recorded log p for entry `Clc1csc(-c2n[nH]cc2I)c1`
2.68

State its log p: CCC(C)n1cc(I)c(-c2cc(C)cs2)n1 (stereo not drawn)
4.79

Please report log p for the following compound: `CSc1ccc(-c2c(-c3ccncc3)cnn2C(C)C)s1`
1.78

Supply measured log p of CCC[CH2][Sn]([CH2]CCC)([CH2]CCC)[c]1c(-c2ccncc2)cnn1C1CCCCO1 (stereo not drawn) in your reply.
4.89

Return log p for the following compound: `CC(C)Cn1cc(-c2cc(N)ncn2)c(-c2ccc(Cl)s2)n1`
1.97

Let me know recorded log p for CCCn1ccc(-c2cccs2)n1 [1-Propyl-3-(2-thienyl)-1H-pyrazole] , thanks.
2.58

* * *

details: pH 2.7
Marks after values point to notes of the source that are not given here.
Collected log p values appear next to each entry.

Consider the reported log p for these compounds:
- CCC(C)n1cc(-c2ccnc(NC(C)=O)c2)c(-c2ccc(Cl)s2)n1 (stereo not drawn): 2.94^[b]
- CCCc1c(-c2ccncc2)c(-c2sccc2C)nn1C: 1.31^[b]

Return log p (reported value) for this compound: `Clc1ccc(-c2c(-c3ccncc3)cnn2-c2ccccc2)s1`
1.88^[b]

Output measured log p for this item: `CC(C)Cn1cc(-c2ccncc2)c(-c2cc3ccsc3s2)n1`
2.04^[b]

Output log p of `Fc1ccc(-c2nn(CC(F)(F)F)cc2-c2ccncc2)s1`
1.64^[b]

// Input: CCC(C)n1cc(-c2ccncc2)c(-c2sccc2Cl)n1 (stereo not drawn) . Output its log p only.
1.56^[b]

Write down log p measured for item `CCOCCn1cc(-c2ccncc2)c(-c2cc3ccsc3s2)n1`
1.7^[b]

Please give measured log p of the following entry: `COCC(=O)Nc1cc(-c2cn(C)nc2-c2ccc(Cl)s2)ccn1`
2.4^[b]

Supply recorded log p for `CC(=O)Nc1cc(-c2cn(C)nc2-c2ccc(Cl)s2)ccn1` here.
1.79^[b]

* * *

system: Fusarium proliferatum; experiment: Production of fumonisin FB1 by Fusarium proliferatum (microtiter plate, HPLC-MS/MS and OD620); format: cell-based; details: 5 days at 20° C., HPLC-MS/MS
Reported metric: % inhibition FB1 production at 50 μM (%)
Write the answer as a number in %, unit excluded.

* CC(C)n1cc(-c2ccncc2)c(-c2ccc(Cl)s2)n1 | 100
* CCC(C)n1ncc(-c2ccncc2)c1-c1ccc(F)s1 (stereo not shown) | 80
* Clc1ccc(-c2nn(Cc3ccccc3)cc2-c2ccncn2)s1 | 81
* CC(C)n1cc(-c2ccncc2)c(-c2ccc(F)s2)n1 | 100

Quote % inhibition FB1 production at 50 μM with test system Fusarium proliferatum for `CC(C)Cn1cc(-c2ccncc2)c(-c2ccc(Cl)s2)n1`
100

GET % inhibition FB1 production at 50 μM where system = Fusarium proliferatum and item = CCC(C)n1cc(-c2ccncc2)c(-c2ccc(F)s2)n1 (stereo not shown)
98

Give the observed % inhibition FB1 production at 50 μM of `CC(=O)n1cc(-c2ccncn2)c(-c2ccc(Cl)s2)n1` for Fusarium proliferatum.
89

Fetch value of % inhibition FB1 production at 50 μM on Fusarium proliferatum for `Clc1ccc(-c2n[nH]cc2-c2ccncc2)s1` .
82

Report value: % inhibition FB1 production at 50 μM, system: Fusarium proliferatum, compound: `Clc1ccc(-c2n[nH]cc2-c2ccncn2)s1`
99

Identify measured % inhibition FB1 production at 50 μM obtained with Fusarium proliferatum for CCC(C)n1cc(-c2ccnc(C#N)c2)c(-c2ccc(Cl)s2)n1 (stereo not shown) .
99

* * *

Listing of entries alongside the reported logP (pH2.7), minor isomer.
settings: pH 2.7
I'd appreciate a reply containing only the number, no unit.

Solved entries (count: 4):
- CC#Cc1c(-c2ccncc2)c(-c2ccc(Cl)s2)nn1C(C)C: 2.21
- CC(C)n1cc(-c2ccnc(N)c2)c(-c2ccc(Cl)s2)n1: 1.72
- CC(=O)Nc1cc(-c2cn(C(C)C)nc2-c2ccc(Cl)s2)ccn1: 2.22
- CC#Cc1c(-c2ccncc2)c(-c2ccc(Cl)s2)nn1Cc1ccc(OC)cc1: 2.61

Output logP (pH2.7), minor isomer of `CC(C)Cn1cc(-c2ccnc(N)c2)c(-c2ccc(Cl)s2)n1`
1.93

Supply recorded logP (pH2.7), minor isomer for `CC(C)Cn1cc(-c2ccncc2)c(-c2cc3sccc3s2)n1` here.
2.02

Give me measured logP (pH2.7), minor isomer, please, for this compound: `CC(C)Nc1nccc(-c2cn(C3CCCC3)nc2-c2ccc(Cl)s2)n1`
3.33

Given `CC(C)n1cc(-c2ccncc2)c(-c2cccs2)n1` , respond with its logP (pH2.7), minor isomer.
1.33

Tell us which logP (pH2.7), minor isomer value is on record for `CC(C)n1cc(-c2ccnc(N=C(c3ccccc3)c3ccccc3)c2)c(-c2ccc(Cl)s2)n1`
3.96

Return logP (pH2.7), minor isomer (reported value) for this compound: `CC(C)n1cc(-c2ccncc2)c(-c2ccc(C(F)(F)F)s2)n1`
2.08

Return reported logP (pH2.7), minor isomer. Input compound: `CC(C)n1cc(-c2ccncc2)c(-c2ccc(Br)s2)n1`
1.76

* * *

tested on: Fusarium graminearum; format: cell-based; details: 50 μM; 7 days at 28° C.
Reported metric: % Inhibition of DON/AcDON at 50 μM (%)
All answers are understood in %, so give the number only.

- CC(C)n1cc(-c2ccnc(NC(=O)CC3CC3)c2)c(-c2ccc(Cl)s2)n1 [Example 250]: 99
- O=C1OCCC1n1cc(-c2ccncc2)c(-c2ccc(Br)s2)n1 (centres unmarked) [Example 385]: 82
- COCC(=O)Nc1cc(-c2cn(CC(C)C)nc2-c2ccc(Cl)s2)ccn1 [Example 360]: 100

Retrieve % Inhibition of DON/AcDON at 50 μM on Fusarium graminearum; query CC(C)n1cc(-c2ccncc2)c(-c2ccc(I)s2)n1 [Example 214]
99

Identify measured % Inhibition of DON/AcDON at 50 μM obtained with Fusarium graminearum for C=CC(C)n1cc(-c2ccncc2)c(-c2cc3ccsc3s2)n1 (centres unmarked) [Example 368] .
99

Fetch value of % Inhibition of DON/AcDON at 50 μM on Fusarium graminearum for CCn1cc(-c2ccnc(NC(=O)C3CC3)c2)c(-c2ccc(Cl)s2)n1 [Example 264] .
99

* * *

test system: Pyrenophora teres; assay: In vivo test on Pyrenophora teres (barley net blotch); conditions: dose of 500 ppm; barley plants; grading 12 days after contamination
Reported metric: protection (%)
Write the answer as a number in %, unit excluded.

* CCC(C)n1cc(-c2ccnc(NC(C)=O)n2)c(-c2ccc(Cl)s2)n1 (centres unmarked) [Example 151] | 90

Respond only with protection recorded for CC(C)n1cc(-c2ccnc(NC(=O)N(C)C)c2)c(-c2ccc(Cl)s2)n1 [Example 248]
100

State, in one line, measured protection of CCC(C)n1cc(-c2ccnc(NC(=O)C(C)C)c2)c(-c2ccc(Cl)s2)n1 (centres unmarked) [Example 234]
95

Fill in reported protection for this entry: CCC(C)n1cc(-c2ccnc(N(C(C)=O)C(C)=O)n2)c(-c2ccc(Cl)s2)n1 (centres unmarked) [Example 150]
95

Specify reported protection for the molecule shown: CC(C)n1cc(-c2ccnc(NC(=O)Cc3ccccc3)c2)c(-c2ccc(Cl)s2)n1 [Example 245]
100

Assign protection to the following record: CCOC(=O)Nc1cc(-c2cn(C(C)CC)nc2-c2ccc(Cl)s2)ccn1 (centres unmarked) [Example 236]
95

State its protection for this molecule: C[C@H](O)C(=O)Nc1cc(-c2cn(C)nc2-c2ccc(Cl)s2)ccn1 [Example 207]
70

In one line, give reported protection of the entry CCC(=O)Nc1nccc(-c2cn(C(C)C)nc2-c2ccc(Cl)s2)n1 [Example 172] .
100

* * *

assay: physchem; details: pH 2.7
Reported metric: log p
Output spec: single numeric token, no unit.

Reference set (8 entries):
* Cc1csc(-c2ccn(C)n2)c1 | 2.14
* CCn1cc(I)c(-c2cc(Cl)cs2)n1 | 4.02
* CCC(C)n1ncc(I)c1-c1cccs1 (stereo not drawn) | 4.12
* CCC(C)n1cc(-c2ccnc(Br)c2)c(-c2ccc(Cl)s2)n1 (stereo not drawn) | 5.03
* CCCc1c(I)c(-c2cccs2)nn1C | 3.92
* CC(C)Cn1cc(-c2ccnc3ccccc23)c(-c2ccc(Cl)s2)n1 | 3.69
* CCC(C)n1cc(-c2ccnc(C#N)c2)c(-c2ccc(Cl)s2)n1 (stereo not drawn) | 4.41
* CCC(C)n1cc(-c2ccnc(NC(C)=O)c2)c(-c2ccc(Cl)s2)n1 (stereo not drawn) | 2.94

Turning now to a further record.
Determine from records and report log p for `CCCc1c(I)c(-c2sccc2C)nn1C`
4.03
